systemUnderTest: CD82 (mouse) (mouse, UniProt P40237)
methodSummary: IP with anti CD82 antibodies, mouse muscle tissue, mass spectrometry
quantityMeasured: Total
Output spec: single numeric token, no unit.

Q: // Input: Annexin 2 (mouse) (other) STVHEILCKLSLEGDHSTPPSAYGSVKPYTNFDAERDALNIETAVKTKGVDEVTIVNILTNRSNVQRQDIAFAYQRRTKKELPSALKSALSGHLETVILGLLKTPAQYDASELKASMKGLGTDEDSLIEIICSRTNQELQEINRVYKEMYKTDLEKDIISDTSGDFRKLMVALAKGRRAEDGSVIDYELIDQDARELYDAGVKRKGTDVPKWISIMTERSVCHLQKVFERYKSYSPYDMLESIKKEVKGDLENAFLNLVQCIQNKPLYFADRLYDSMKGKGTRDKVLIRIMVSRSEVDMLKIRSEFKRKYGKSLYYYIQQDTKGDYQKALLYLCGGDD . Output its Total only.
A: 1

Q: // Input: LYZ1_MOUSE (enzyme) KVYNRCELARILKRNGMDGYRGVKLADWVCLAQHESNYNTRATNYNRGDRSTDYGIFQINSRYWCNDGKTPRSKNACGINCSALLQDDITAAIQCAKRVVRDPQGIRAWVAWRTQCQNRDLSQYIRNCGV . Output its Total only.
A: 1
